# tgt: T1, nectin-4 on intact HT-1376 cells (human (endogenous in HT-1376), UniProt Q96NY8 32-510)
# T1 construct: also called cellular nectin-4
# T1 sequence (looked up): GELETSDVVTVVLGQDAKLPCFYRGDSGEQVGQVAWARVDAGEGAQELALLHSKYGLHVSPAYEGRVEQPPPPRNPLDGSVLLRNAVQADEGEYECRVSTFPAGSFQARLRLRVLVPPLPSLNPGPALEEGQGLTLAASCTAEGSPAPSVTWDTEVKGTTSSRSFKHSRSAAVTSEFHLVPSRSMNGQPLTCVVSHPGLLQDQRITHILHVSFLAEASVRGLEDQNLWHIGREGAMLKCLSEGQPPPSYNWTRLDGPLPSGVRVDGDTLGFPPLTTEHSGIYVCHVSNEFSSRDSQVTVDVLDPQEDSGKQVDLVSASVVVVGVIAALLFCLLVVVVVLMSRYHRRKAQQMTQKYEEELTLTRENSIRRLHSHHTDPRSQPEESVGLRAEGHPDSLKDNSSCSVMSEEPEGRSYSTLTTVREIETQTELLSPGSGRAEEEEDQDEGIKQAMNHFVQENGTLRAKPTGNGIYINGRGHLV
# experiment.summary: radioligand binding; saturation binding on intact HT-1376 cells, 10 radioligand concentrations (0.156-80 or 0.321-160 nM), 37 °C, 1 h, PBS wash; nonspecific with 1 µM 1d; apparent (covers binding and putative internalisation)
# test.context: one partner purified
Numbered stars: 1 amine (or outer) side, 2 acyl side, 3 side chain; on linkers, the order of the positions; unused ones are H or OH. Bridge positions count the residues as written; N and C are the ends. Square brackets hold non-standard residues; d marks the D form. * marks the point of attachment. (R)‑NODAGA = O=C(O)CN1CCN(CC(=O)O)CCN([C@H](CCC(=O)*)C(=O)O)CC1; TATA = O=C(CC[*:1])N1CN(C(=O)CC[*:2])CN(C(=O)CC[*:3])C1; 1Nal = N[C@@H](Cc1cccc2ccccc12)C(=O)O; Hyp = O=C(O)[C@@H]1C[C@@H](O)CN1; hArg = N=C(N)NCCCC[C@H](N)C(=O)O
# Kd values compiled below

binder	readout.unit	Kd
{(R)‑NODAGA}-CP[1Nal][dD]CM[hArg]DWSTP[Hyp]WC-NH2 (linker 1-5-15 via TATA; also: NODAGA complexed with 64Cu) [[64Cu]Cu-1e]	nM	7.15
{(R)‑NODAGA}-CP[1Nal][dD]CM[hArg]DWSTP[Hyp]WC-NH2 (linker 1-5-15 via TATA; also: NODAGA complexed with 68Ga) [[68Ga]Ga-1e]	nM	8.7
